Listing of recorded melting point by entry.

These recorded examples may help you get a feel for the data.
C/C(=C\c1ccc(-c2ccc3[nH]ccc3c2)cc1)C(=O)NC1CCCC1 : 154 to 157 °C
C/C(=C\c1ccc(-c2ccc3[nH]ccc3c2)cc1)C(=O)O : 195 to 198 °C
C/C(=C\c1cc(F)c(-c2ccc(NC(C)C)cc2)cc1F)C(=O)NCC(=O)O : 156 to 158 °C

Turning now to a further compound:
Documented melting point of COc1cc(-c2ccc(NC(C)C)cc2F)c(OC)cc1/C=C(\C)C(=O)O : 213 to 216 °C

---

Listing of recorded IC50 by entry.
System: Human lymphocyte
Experiment: suppression of IgE antibody production in human lymphocyte stimulated with anti-human CD40 antibody and IL-4
Assay type: cell-based
Conditions: 216 h; IgE antibody production by human lymphocyte, anti-human CD40 antibody + IL-4, cultured for 9 days, ELISA
Value and unit, in that order.

These recorded examples may help you get a feel for the data.
CCS(=O)(=O)NC(=O)/C(C)=C/c1cc(C)c(-c2ccc(NCc3ccco3)cc2F)cc1C : 0.06 µg/mL
C/C(=C\c1c(C)c(C)c(-c2ccc(NC(C)C)cc2F)c(C)c1C)C(=O)N[C@H](C)C(=O)O : 0.039 µg/mL
CC/C(=C\c1cc(C)c(-c2ccc(NC(C)C)cc2)cc1C)C(=O)NC1CCCC1 : 0.0084 µg/mL

Turning now to a further molecule:
Documented IC50 of COc1c(C)c(-c2ccc(NC3CCCCC3)cc2)c(OC)c(C)c1/C=C(\C)C(=O)O : 0.0072 µg/mL

---

System: anti-OVA IgE antibody
Experiment: suppression of IgE antibody production to anti-ovalbumin (OVA) in immunized mice, PCA titer
Type: in vivo
Conditions: dose 10 mg/kg orally for consecutive 10 days; anti-OVA IgE antibody value (PCA titer, Log2 of maximum serum dilution rate) in BALB/c mice
QUANTITY NAME: PCA
// response body must contain only the number

These recorded examples may help you get a feel for the data.
CC/C(=C\c1c(C)c(F)c(-c2ccc(NC(C)C)cc2)c(C)c1F)C(=O)N[C@H](C)C(=O)O : 4.7
COc1c(C)c(-c2ccc(NC3CCCCC3)cc2)c(OC)c(C)c1/C=C(\C)C(=O)O : 4
COc1c(C)c(-c2ccc(NCc3ccc(C)o3)cc2)c(OC)c(C)c1/C=C(\C)C(=O)O : 1.3
C/C(=C\c1cc(C)c(-c2ccc(NC(C)C)cc2F)cc1C)C(=O)NC(C)C : 4.7
CC/C(=C\c1c(C)c(F)c(-c2ccc(NC(C)C)cc2)c(C)c1F)C(=O)O : 4.0

Documented PCA of C/C(=C\c1c(C)c(C)c(-c2ccc(NC3CCCC3)cc2F)c(C)c1C)C(=O)NC1CCCC1 : 2.7

Documented PCA of CC/C(=C\c1cc(C)c(-c2ccc(NC(C)C)cc2)cc1C)C(=O)NC1CCCC1 : 0.0

Documented PCA of C/C(=C\c1cc(C)c(-c2ccc3[nH]ccc3c2)cc1C)C(=O)NC(C)C : 4.3

---

Tested on: Human lymphocyte
Assay: suppression of IgE antibody production in human lymphocyte stimulated with anti-human CD40 antibody and IL-4
Format: cell-based
Settings: 216 h; IgE antibody production by human lymphocyte, anti-human CD40 antibody + IL-4, cultured for 9 days, ELISA
Text: Effect of Suppressing Antibody Production Using Human Lymphocyte 1) Human Peripheral Blood Human peripheral blood was collected with a plastic syringe containing heparin (final concentration 1.5%) from a vein of an adult healthy person, and subjected to collection of lymphocyte immediately after blood collection. […] 6) Quantitation of IgE Antibody For quantitating IgE, a commercially available kit, MESACUP IgE Test (Medical & Biological Laboratories Co., Ltd.) was used. […]
One threshold, 2 ng/mL, splits the recorded IC50 values: lower ones are satisfied, equal or higher ones are not satisfied.

Recorded results for 3 molecules are shown here.
C/C(=C\C(=O)NC(C)C)c1cc(C)c(-c2ccc3[nH]ccc3c2)cc1C [Compound 252] : not satisfied
C/C(=C\c1cc(C)c(-c2ccc(NC(C)C)cc2F)cc1C)C(=O)NC(C)C [Compound 122] : satisfied
Cc1cc(-c2ccc(NC3CCCC3)cc2)c(C)cc1/C=C(\F)C(=O)NC(C)C [Compound 397] : satisfied

Exercise: Please indicate whether the reported IC50 of C/C(=C\c1cc(C)c(-c2ccc3[nH]ccc3c2)cc1C)C(=O)NC(C)C [Compound 76] is strictly below 2 ng/mL.
Solution: satisfied

Exercise: Please indicate whether the reported IC50 of COc1c(C)c(-c2ccc(NC3CCCCC3)cc2)c(OC)c(C)c1/C=C(\C)C(=O)N[C@H](C)C(=O)O [Compound 562] is strictly below 2 ng/mL.
Solution: not satisfied

Exercise: Please indicate whether the reported IC50 of C/C(=C\c1cc(C)c(-c2ccc(NC(C)C)cc2)cc1C)C(=O)NC1CCCCC1 [Compound 80] is strictly below 2 ng/mL.
Solution: not satisfied

Exercise: Please indicate whether the reported IC50 of CC/C=C/CNc1ccc(-c2c(C)c(OC)c(/C=C(\C)C(=O)O)c(C)c2OC)cc1 [Compound 585] is strictly below 2 ng/mL.
Solution: not satisfied

Exercise: Please indicate whether the reported IC50 of Cc1cc(-c2ccc(NC3CCCC3)cc2)c(C)cc1/C=C(\F)C(=O)NCCC(=O)O [Compound 408] is strictly below 2 ng/mL.
Solution: not satisfied

Exercise: Please indicate whether the reported IC50 of COc1c(C)c(-c2ccc(NC(C)C)cc2)c(OC)c(C)c1/C=C(\C)C(=O)O [Compound 526] is strictly below 2 ng/mL.
Solution: satisfied

Exercise: Please indicate whether the reported IC50 of C/C(=C\c1c(C)c(F)c(-c2ccc(NC(C)C)cc2)c(C)c1F)C(=O)O [Compound 486] is strictly below 2 ng/mL.
Solution: not satisfied

---

Listing of recorded IC50 by entry.
Molecular target: dihydrooroate dehydrogenase (Homo sapiens)
Construct: ultracentrifugation at 4° C. and 120,000×g for 60 minutes afforded a mitochondrial/microsomal fraction; endogenous in cells
Assay: dihydroorotate dehydrogenase inhibition, U-937 mitochondrial/microsomal fraction, DCIP absorbance at 620 nm
Settings: DHODH of human U-937 cell mitochondrial/microsomal fraction; 37° C., 120 minutes

CCS(=O)(=O)NC(=O)/C(C)=C/c1cc(C)c(-c2ccc(NCc3ccco3)cc2F)cc1C : 6.16 nM
CC(C)=CCNc1ccc(-c2cc(C)c(/C=C(\C)C(=O)NC(C)C)cc2C)c(F)c1 : 3.67 nM
C/C(=C\c1cc(C)c(-c2ccc(NCc3ccco3)cc2F)cc1C)C(=O)NC1CCCC1 : 2.46 nM
COc1c(C)c(-c2ccc(NCC=C(C)C)cc2)c(OC)c(C)c1/C=C(\C)C(=O)NC(C)C : 9.32 nM
C/C(=C\c1cc(C)c(-c2ccc(NCc3ccco3)cc2F)cc1C)C(=O)NC(C)C : 7.13 nM

Documented IC50 of COc1c(C)c(-c2ccc(NC3CCCC3)cc2)c(OC)c(C)c1/C=C(\C)C(=O)NC1CCCC1 : 8.39 nM

Documented IC50 of C/C(=C\c1c(C)c(C)c(-c2ccc(NC(C)C)cc2)c(C)c1C)C(=O)NC1CC1 : 2.56 nM

Documented IC50 of COc1cc(-c2ccc(NCc3ccco3)cc2F)c(OC)cc1/C=C(/F)C(=O)NC1CC1 : 8.14 nM

Documented IC50 of C/C(=C\c1c(C)c(C)c(-c2ccc(NC3CCCC3)cc2)c(C)c1C)C(=O)NC(C)C : 2.63 nM

Documented IC50 of COc1cc(-c2ccc(NCc3ccco3)cc2F)c(OC)cc1/C=C(\C)C(=O)NC(C)C : 7.73 nM

---

Test system: anti-OVA IgE antibody
Assay: suppression of IgE antibody production to anti-ovalbumin (OVA) in immunized mice, PCA titer
Format: in vivo
Conditions: dose 10 mg/kg orally for consecutive 10 days; anti-OVA IgE antibody value (PCA titer, Log2 of maximum serum dilution rate) in BALB/c mice
QUANTITY NAME: PCA
// response body must contain only the number

C/C(=C\c1cc(C)c(-c2ccc(NC(C)C)cc2)cc1C)C(=O)NC1CCCCC1 [Compound 80] : 5.3

Documented PCA of Cc1cc(-c2ccc(NC(C)C)cc2F)c(C)cc1/C=C(/F)C(=O)NC(C)C [Compound 201] : 5.3

Documented PCA of CC/C=C/CNc1ccc(-c2c(C)c(OC)c(/C=C(\C)C(=O)O)c(C)c2OC)cc1 [Compound 585] : 1.0

---

Listing of recorded pIC50 by entry.
Molecular target: dihydrooroate dehydrogenase (Homo sapiens, UniProt Q02127)
Construct: ultracentrifugation at 4° C. and 120,000×g for 60 minutes afforded a mitochondrial/microsomal fraction; endogenous in cells
Sequence (Q02127 whole entry): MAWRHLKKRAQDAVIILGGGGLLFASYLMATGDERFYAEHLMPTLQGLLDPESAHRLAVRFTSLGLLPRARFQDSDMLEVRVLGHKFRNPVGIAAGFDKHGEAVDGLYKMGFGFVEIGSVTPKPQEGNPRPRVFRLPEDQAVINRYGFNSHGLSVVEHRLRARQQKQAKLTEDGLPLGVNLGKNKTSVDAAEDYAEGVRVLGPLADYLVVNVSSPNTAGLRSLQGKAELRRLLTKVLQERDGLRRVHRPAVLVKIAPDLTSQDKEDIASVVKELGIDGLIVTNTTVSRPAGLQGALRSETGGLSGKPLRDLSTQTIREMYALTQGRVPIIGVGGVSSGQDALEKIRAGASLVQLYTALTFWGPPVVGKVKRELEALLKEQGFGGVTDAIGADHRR
Test: dihydroorotate dehydrogenase inhibition, U-937 mitochondrial/microsomal fraction, DCIP absorbance at 620 nm
Settings: DHODH of human U-937 cell mitochondrial/microsomal fraction; 37° C., 120 minutes
Description: Method of Testing dihydrooroate dehydrogenase Inhibition Human U-937 cell (human histiocytic lymphoma cell line) was sonicated in a homogenizing buffer (20 mM Tris-HC1, pH 7.4, containing 2 mM EDTA and protease inhibitor cocktail), and this was centrifuged at 4° C. and 1,200×g for 15 minutes to remove cell debris. […] The resulting fraction was quantitated for a protein, and prepared to 10 mg/ml, which was freezing-stored in a −40° C. in a refrigerator until measurement. […]
// pIC50: -log10(molar conc.)

These recorded examples may help you get a feel for the data.
CC/C(=C\c1cc(C)c(-c2ccc(NC3CCCC3)cc2F)cc1C)C(=O)NC1CCCC1 : 8.33
COc1cc(-c2ccc(NC(C)C)cc2F)c(OC)cc1/C=C(\C)C(=O)NC1CC1 : 8.12
C/C(=C\c1c(C)c(C)c(-c2ccc(NC3CCCC3)cc2)c(C)c1C)C(=O)NC1CCCC1 : 8.04
C/C(=C\c1cc(C)c(-c2cccc3[nH]ccc23)cc1C)C(=O)NC1CC1 : 8.28
C/C(=C\c1c(C)c(C)c(-c2ccc(NCc3ccco3)cc2)c(C)c1C)C(=O)NC1CC1 : 9.04

Documented pIC50 of C/C(=C\c1c(C)c(C)c(-c2ccc(NC(C)C)cc2F)c(C)c1C)C(=O)NS(=O)(=O)c1ccccc1 : 8.19

Documented pIC50 of Cc1cc(-c2ccc(NC3CCCC3)cc2)c(C)cc1/C=C(\F)C(=O)NC(C)C : 8.16

Documented pIC50 of C/C(=C\c1c(C)c(C)c(-c2ccc3[nH]ccc3c2)c(C)c1C)C(=O)NC1CC1 : 8.17
